Type: in vivo, BALB/c mice
Details: BALB/c, mouse, lung, iv, 20 mg/kg, AUC0-t; 20 mg/kg IV; 0–1440 min
experimental.readout: AUC(0-t) (µg·h/mL)

>>> print(df.to_string())
                               smiles_input  value_reported
0  CNCc1ccc(-c2cc(-c3nc(-c4ccc(S(=O)(=O)C(C)C)cc4)cnc3N)on2)cc1             198

---

Format: in vivo, BALB/c mice
Conditions: BALB/c, mouse, spinal cord, iv, 20 mg/kg
experimental.readout: Kp

In [3]: df
Out[3]:
                               smiles_input  value_reported
0  CNCc1ccc(-c2cc(-c3nc(-c4ccc(S(=O)(=O)C(C)C)cc4)cnc3N)on2)cc1            0.14

---

Assay type: in vivo, BALB/c mice
Conditions: BALB/c, mouse, thymus, iv, 20 mg/kg
experimental.readout: AUC(0-inf) (µg·h/mL)

>>> df
                               smiles_input  experimental_readout  value_reported
0  CNCc1ccc(-c2cc(-c3nc(-c4ccc(S(=O)(=O)C(C)C)cc4)cnc3N)on2)cc1            AUC(0-inf)            92.9

---

Assay type: in vivo, BALB/c mice
Settings: BALB/c, mouse, spleen, iv, 20 mg/kg
experimental.readout: Tmax (h)

                               smiles_input  value_reported
0  CNCc1ccc(-c2cc(-c3nc(-c4ccc(S(=O)(=O)C(C)C)cc4)cnc3N)on2)cc1               2

---

Format: in vivo, BALB/c mice
Conditions: BALB/c, mouse, lung, iv, 20 mg/kg
experimental.readout: Tmax (min)

In [3]: df
Out[3]:
                                   compound  value_reported
0  CNCc1ccc(-c2cc(-c3nc(-c4ccc(S(=O)(=O)C(C)C)cc4)cnc3N)on2)cc1 [berzosertib]               5

---

Type: in vivo, BALB/c mice
Settings: BALB/c, mouse, skeletal muscle, iv, 20 mg/kg
experimental.readout: AUC(0-inf) (ng·h/mL)

In [3]: df
Out[3]:
                                   compound  value_reported
0  CNCc1ccc(-c2cc(-c3nc(-c4ccc(S(=O)(=O)C(C)C)cc4)cnc3N)on2)cc1 [berzosertib]           41700

---

Experiment: Dose linearity study: single IV dose PK, noncompartmental analysis
Assay type: in vivo, female BALB/c mice
Conditions: female, BALB/c, mouse, plasma, iv, 20 mg/kg
experimental.readout: Tmax (min)

                                   compound  experimental_readout  unit_info  value_reported
0  CNCc1ccc(-c2cc(-c3nc(-c4ccc(S(=O)(=O)C(C)C)cc4)cnc3N)on2)cc1 [berzosertib]                  Tmax        min               5

---

Format: in vivo, BALB/c mice
Details: BALB/c, mouse, liver, iv, 20 mg/kg
experimental.readout: Tmax (min)

                                   compound  value_reported
0  CNCc1ccc(-c2cc(-c3nc(-c4ccc(S(=O)(=O)C(C)C)cc4)cnc3N)on2)cc1 [berzosertib]               5
